Test system: Enterococcus faecalis
Experiment: Antimicrobial activity against Enterococcus faecalis at 250 ug/ml
Type: functional, organism-based
Active and inactive are the calls of the source. The calls are words filed in the database; no cut-off is given here.
observed-property: Activity

- smiles-input: "CC(=O)N[C@H](CSC[C@@H]1OC(=O)[C@@]2(C1=O)C(=O)[C@@]1(C)[C@@H](C=C[C@H]3[C@H](O)[C@@H](C)[C@H](OC(C)=O)C[C@@H]31)C[C@H]2/C=C/C=C/C=C/C(=O)O)C(=O)N[C@H]1[C@@H](O[C@@H]2[C@@H](O)[C@H](O)[C@@H](O)[C@H](O)[C@@H]2O)O[C@@H](CO)[C@@H](O)[C@@H]1O"
  result: "inactive"
- smiles-input: "C=C1OC(=O)[C@@]2(C1=O)C(=O)[C@@]1(C)[C@@H](C=C[C@H]3[C@H](O)[C@@H](C)[C@H](OC(C)=O)C[C@@H]31)C[C@H]2/C=C/C=C/C=C/C(=O)O"
  result: "inactive"

* * *

Test system: Streptococcus pneumoniae
Test: Antimicrobial activity against Streptococcus pneumoniae CL 2883
Type: functional
Active and inactive are the calls of the source. No cut-off for these calls is given here.
observed-property: Activity

Solved cases (4 shown):
- smiles-input: "C=C1OC(=O)[C@@]2(C1=O)C(=O)[C@@]1(C)[C@@H](C=C[C@H]3[C@H](O)[C@@H](C)[C@H](OC(C)=O)C[C@@H]31)C[C@H]2/C=C/C=C/C=C/C(=O)O"
  Activity: "inactive"
- smiles-input: "CC(=O)N[C@H](CSC[C@@H]1OC(=O)[C@@]2(C1=O)C(=O)[C@@]1(C)[C@@H](C=C[C@H]3[C@H](O)[C@@H](C)[C@H](OC(C)=O)C[C@@H]31)C[C@H]2/C=C/C=C/C=C/C(=O)O)C(=O)N[C@H]1[C@@H](O[C@@H]2[C@@H](O)[C@H](O)[C@@H](O)[C@H](O)[C@@H]2O)O[C@@H](CO)[C@@H](O)[C@@H]1O"
  Activity: "inactive"
- smiles-input: "CC(=O)O[C@@H]1C[C@H]2[C@@H](C=C[C@H]3C[C@@H](/C=C/C=C/C=C/C(=O)O)[C@@]4(C(=O)O[C@@H](CO)C4=O)C(=O)[C@@]32C)[C@H](O)[C@H]1C"
  Activity: "inactive"
- smiles-input: "CC(=O)N[C@H](CSC[C@H]1OC(=O)[C@@]2(C1=O)C(=O)[C@@]1(C)[C@@H](C=C[C@H]3[C@H](O)[C@@H](C)[C@H](OC(C)=O)C[C@@H]31)C[C@H]2/C=C/C=C/C=C/C(=O)O)C(=O)N[C@H]1[C@@H](O[C@@H]2[C@@H](O)[C@H](O)[C@@H](O)[C@H](O)[C@@H]2O)O[C@@H](CO)[C@@H](O)[C@@H]1O"
  Activity: "inactive"

Continue with the next molecule.
Recorded Activity of C=C(OC(=O)[C@@H]1C(=O)[C@@]2(C)[C@@H](C=C[C@H]3[C@H](O)[C@@H](C)[C@H](OC(C)=O)C[C@@H]32)C[C@H]1/C=C/C=C/C=C/C(=O)O)C(=O)O , please.
inactive

* * *

Test system: Enterococcus faecalis
Experiment: Antimicrobial activity against Enterococcus faecalis at 250 ug/ml
Type: functional, organism-based
Calls of active or inactive are those of the source. The rule behind the calls is not given here.

- smiles-input: "CC(=O)O[C@@H]1C[C@H]2[C@@H](C=C[C@H]3C[C@@H](/C=C/C=C/C=C/C(=O)O)[C@@]4(C(=O)O[C@@H](CO)C4=O)C(=O)[C@@]32C)[C@H](O)[C@H]1C"
  Activity: "inactive"
- smiles-input: "CC(=O)N[C@H](CSC[C@H]1OC(=O)[C@@]2(C1=O)C(=O)[C@@]1(C)[C@@H](C=C[C@H]3[C@H](O)[C@@H](C)[C@H](OC(C)=O)C[C@@H]31)C[C@H]2/C=C/C=C/C=C/C(=O)O)C(=O)N[C@H]1[C@@H](O[C@@H]2[C@@H](O)[C@H](O)[C@@H](O)[C@H](O)[C@@H]2O)O[C@@H](CO)[C@@H](O)[C@@H]1O"
  Activity: "inactive"
- smiles-input: "C=C(OC(=O)[C@@H]1C(=O)[C@@]2(C)[C@@H](C=C[C@H]3[C@H](O)[C@@H](C)[C@H](OC(C)=O)C[C@@H]32)C[C@H]1/C=C/C=C/C=C/C(=O)O)C(=O)O"
  Activity: "inactive"
